Assay: Stability of pure lycopene isomers in n-hexane during storage at room temperature
Format: physicochemical
Conditions: n-hexane, room temperature, absence of light, 33 days
Procedure: Pure 5-Z, 9-Z, 13-Z and all-E lycopene were isolated from isomerised tomato oleoresin (submitted to 1 hour heating), by collecting the fractions containing the corresponding peaks after HPLC separation (see below the experimental conditions). […] Lycopene isomer profiles were determined by normal phase HPLC according to the method described by Schierle et al. (Schierle, J., Bretzel, W., Bühler, I., Faccin, N., Hess, D., Steiner, K., Schuep, W. (1997). Food. Chem. 59: 459). […]
Reported Property: concentration (% of total isomers) 9-Z

Request: Entry CC(C)=CCC\C(C)=C/C=C/C(C)=C/C=C/C(C)=C/C=C/C=C(C)/C=C/C=C(C)/C=C/C=C(\C)CCC=C(C)C [5-Z lycopene] has what concentration (% of total isomers) 9-Z?
Response: 2.3 % of total isomers

Request: Entry CC(C)=CCC/C(C)=C/C=C/C(C)=C/C=C/C(C)=C\C=C\C=C(C)\C=C\C=C(C)\C=C\C=C(/C)CCC=C(C)C [13-Z lycopene] please
Response: 4.2 % of total isomers

More entries:
Request: Record request: concentration (% of total isomers) 9-Z value, item CC(C)=CCC/C(C)=C/C=C/C(C)=C\C=C\C(C)=C\C=C\C=C(C)\C=C\C=C(C)\C=C\C=C(/C)CCC=C(C)C [9-Z lycopene]
Response: 56.0 % of total isomers

Request: Record: CC(C)=CCC/C(C)=C/C=C/C(C)=C/C=C/C(C)=C/C=C/C=C(C)/C=C/C=C(C)/C=C/C=C(\C)CCC=C(C)C [all-E lycopene]
Response: 3.8 % of total isomers
